Test system: rat jejunal sac
measurement-protocol: In vitro permeation of rat jejunal sac by iron complexes
endpoint: Relative iron uptake, 15 minutes

Here's what some known entries look like.
# compound, Relative iron uptake, 15 minutes
measured = [
    ("Cc1occc(=O)c1[O-].Cc1occc(=O)c1[O-].Cc1occc(=O)c1[O-].[Fe+3] [Iron maltol]", 40),
    ("O=C([O-])CC(O)(CC(=O)[O-])C(=O)[O-].[Fe+3] [Fe^III citrate]", 2.0),
    ("O=S(=O)([O-])[O-].[Fe+2] [Fe^II sulphate, iron(II) sulphate]", 2.4),
]

1. O=C([O-])CCC(=O)[O-].[Fe+2] [Fe^II succinate]
2. O=C([O-])/C=C/C(=O)[O-].[Fe+2] [Fe^II fumarate]
query: Could you point out whether the larger Relative iron uptake, 15 minutes belongs to 1 or to 2 ? Pick one and reply with its label.
result: 2
(2: 4.0, 1: 2.0)

Reference source: patent US5028411A
